Source: patent US20240092784A1

Consider the following compounds; for each one, report its IC50.
target-system: human SPR (Homo sapiens (Human))
assay-info: Evaluation Example 2: Measurement of human SPR inhibitory activity (seven concentrations, sepiapterin absorbance at 420 nm)
Type: biochemical
condition: Evaluation Example 2, seven concentrations 0.14 nM to 100 nM, 240 minutes at room temperature, read-out: IC50
The response must be a number in nM with no trailing unit.

Q) Look up IC50 with human SPR (Homo sapiens (Human)) for this compound: CC(C)Cn1c(=O)c(C(=O)NC2CC2)c(O)n2ncc(C(=O)NCc3ncccn3)c12 [Synthesis Example 231]
A) 0.65

Q) Look up IC50 with human SPR (Homo sapiens (Human)) for this compound: Cc1nn2c(O)c(C(=O)NC3CC3)c(=O)n(CC(C)C)c2c1/C=C/C(=O)N1C[C@@H](F)[C@@H](F)C1 [Synthesis Example 648]
A) 0.74

Q) Look up IC50 with human SPR (Homo sapiens (Human)) for this compound: CC(C)Cn1c(=O)c(C(=O)NC2CC2)c(O)n2ncc(C(=O)N[C@H](C)c3ccccn3)c12 [Synthesis Example 219]
A) 0.98

Q) Look up IC50 with human SPR (Homo sapiens (Human)) for this compound: CC(C)(C)Cn1c(=O)c(C(=O)NC2CC2)c(O)n2nc(-c3cccnc3C(F)F)cc12 [Synthesis Example 297]
A) 3.32

Q) Look up IC50 with human SPR (Homo sapiens (Human)) for this compound: CC1(Cn2c(=O)c(C(=O)NC3CC3)c(O)n3ncc(/C=C/C(=O)N4CC5CCC(C4)O5)c23)CC1 [Synthesis Example 368]
A) 0.61

Q) Look up IC50 with human SPR (Homo sapiens (Human)) for this compound: Cc1nn2c(O)c(C(=O)NC3CC3)c(=O)n(CC(C)C)c2c1/C=C/C(=O)N1C2CCC1COC2 [Synthesis Example 658]
A) 0.78

Q) Look up IC50 with human SPR (Homo sapiens (Human)) for this compound: Cc1noc(C)c1/C=C/c1cnn2c(O)c(C(=O)NC3CC3)c(=O)n(CC(C)C)c12 [Synthesis Example 238]
A) 0.89

Q) Look up IC50 with human SPR (Homo sapiens (Human)) for this compound: CC(C)Cn1c(=O)c(C(=O)NC2CC2)c(O)n2ncc(/C=C/c3noc(=O)[nH]3)c12 [Synthesis Example 267]
A) 14.3

Q) Look up IC50 with human SPR (Homo sapiens (Human)) for this compound: CC(C)Cn1c(=O)c(C(=O)NC2CC2)c(O)n2ncc(/C=C/C(=O)N(C)C3CC3)c12
A) 0.59

Q) Look up IC50 with human SPR (Homo sapiens (Human)) for this compound: CC(C)Cn1c(=O)c(C(=O)NC2CC2)c(O)n2ncc(/C=C/C(=O)N3CC(F)C3)c12
A) 0.77

Q) Look up IC50 with human SPR (Homo sapiens (Human)) for this compound: Cc1nn2c(O)c(C(=O)NC3CC3)c(=O)n(CC(C)C)c2c1/C=C/C(=O)N1CCOc2cnccc21 [Synthesis Example 675]
A) 0.99

Q) Look up IC50 with human SPR (Homo sapiens (Human)) for this compound: CC(=O)N1CCCC2(CCCN2C(=O)/C=C/c2c(C)nn3c(O)c(C(=O)NC4CC4)c(=O)n(CC(C)C)c23)C1 (stereo not drawn) [Synthesis Example 663]
A) 1.41

Q) Look up IC50 with human SPR (Homo sapiens (Human)) for this compound: COC[C@H]1CCN(C(=O)/C=C/c2c(C)nn3c(O)c(C(=O)NC4CC4)c(=O)n(CC(C)C)c23)C1 [Synthesis Example 620]
A) 1.17

Q) Look up IC50 with human SPR (Homo sapiens (Human)) for this compound: O=C(NC1CC1)c1c(O)n2ncc(/C=C/C(=O)N3CCOCC3)c2n(CC2CC2)c1=O [Synthesis Example 387]
A) 0.86

Q) Look up IC50 with human SPR (Homo sapiens (Human)) for this compound: CCOc1cnc(Nc2cc3n(CC(C)(C)C)c(=O)c(C(=O)NC4CC4)c(O)n3n2)cn1 [Synthesis Example 338]
A) 2.73

Q) Look up IC50 with human SPR (Homo sapiens (Human)) for this compound: CC(=O)N1CCC(/C=C/c2cnn3c(O)c(C(=O)NC4CC4)c(=O)n(CC(C)C)c23)CC1 [Synthesis Example 244]
A) 0.99

Q) Look up IC50 with human SPR (Homo sapiens (Human)) for this compound: CC(C)Cn1c(=O)c(C(=O)NC2CC2)c(O)n2ncc(C(=O)N3CCOCC3)c12 [Synthesis Example 227]
A) 0.65

Q) Look up IC50 with human SPR (Homo sapiens (Human)) for this compound: Cc1nn(C)c(C)c1CNC(=O)c1cnn2c(O)c(C(=O)NC3CC3)c(=O)n(CC(C)C)c12 [Synthesis Example 223]
A) 1.12

Q) Look up IC50 with human SPR (Homo sapiens (Human)) for this compound: CC(C)(C)Cn1c(=O)c(C(=O)NC2CC2)c(O)n2nc3[nH]c(=O)ccc3c12 [Synthesis Example 394]
A) 0.39

Q) Look up IC50 with human SPR (Homo sapiens (Human)) for this compound: O=C(NC1CC1)c1c(O)n2ncc(/C=C/C(=O)N3CC4CCC(C3)O4)c2n(CC2(F)CC2)c1=O [Synthesis Example 378]
A) 0.79

Q) Look up IC50 with human SPR (Homo sapiens (Human)) for this compound: Cc1cc(Nc2cc3n(CC(C)(C)C)c(=O)c(C(=O)NC4CC4)c(O)n3n2)ncn1 [Synthesis Example 339]
A) 4.57

Q) Look up IC50 with human SPR (Homo sapiens (Human)) for this compound: CC(C)Cn1c(=O)c(C(=O)NC2CC2)c(O)n2ncc(/C=C/C(=O)N3CCc4cccnc43)c12
A) 2.01

Q) Look up IC50 with human SPR (Homo sapiens (Human)) for this compound: CC(C)Cn1c(=O)c(C(=O)NC2CC2)c(O)n2ncc(/C=C/C(=O)N3CCC(C(C)C)CC3)c12
A) 2.11

Q) Look up IC50 with human SPR (Homo sapiens (Human)) for this compound: CC(C)(C)Cn1c(=O)c(C(=O)NC2CC2)c(O)n2nc(Nc3cnc(C(=O)N4CC[C@H](O)C4)cn3)cc12 [Synthesis Example 360]
A) 0.76

Q) Look up IC50 with human SPR (Homo sapiens (Human)) for this compound: CC(Cn1c(=O)c(C(=O)NC2CC2)c(O)n2ncc(/C=C/C(=O)N3CCOCC3)c12)C(F)(F)F (single isomer, unassigned) [Synthesis Example 389]
A) 0.95

Q) Look up IC50 with human SPR (Homo sapiens (Human)) for this compound: CC(C)Cn1c(=O)c(C(=O)NC2CC2)c(O)n2ncc(/C=C/C(=O)N3CCOC[C@H]3C(F)(F)F)c12
A) 0.87

Q) Look up IC50 with human SPR (Homo sapiens (Human)) for this compound: C/C(=C\c1cnn2c(O)c(C(=O)NC3CC3)c(=O)n(CC(C)C)c12)C(=O)N1CCOCC1 [Synthesis Example 254]
A) 0.84

* * *

target-system: human SPR (Homo sapiens (Human), UniProt P35270)
Sequence (P35270 whole entry): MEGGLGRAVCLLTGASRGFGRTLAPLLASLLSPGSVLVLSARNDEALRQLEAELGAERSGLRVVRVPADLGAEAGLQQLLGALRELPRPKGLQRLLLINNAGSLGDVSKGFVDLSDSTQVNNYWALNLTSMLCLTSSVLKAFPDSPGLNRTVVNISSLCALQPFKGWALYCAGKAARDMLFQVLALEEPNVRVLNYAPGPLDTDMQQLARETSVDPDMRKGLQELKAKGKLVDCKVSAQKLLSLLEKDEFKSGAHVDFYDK
assay-info: Evaluation Example 2: Measurement of human SPR inhibitory activity (seven concentrations, sepiapterin absorbance at 420 nm)
Format: biochemical
condition: Evaluation Example 2, seven concentrations 0.14 nM to 100 nM, 240 minutes at room temperature, read-out: IC50
Counter-ions that a name gives are not always drawn.
Consider the following compounds; for each one, report its pIC50.
By convention, pIC50 is the negative base-10 log of a molar concentration.

Q) Entry under review: C[C@@H]1COCCN1C(=O)/C=C/c1cnn2c(O)c(C(=O)NC3CC3)c(=O)n(CC3(F)CC3)c12 [Synthesis Example 380] . Reported pIC50?
A) 9.12

Q) Entry under review: CC(C)Cn1c(=O)c(C(=O)NC2CC2)c(O)n2ncc(/C=C/C(=O)N3CC[C@H](O)C3)c12 . Reported pIC50?
A) 9.15

Q) Entry under review: CC(C)(C)Cn1c(=O)c(C(=O)NC2CC2)c(O)n2nc3c(c12)CN(CC1CCOCC1)C(=O)N3 [Synthesis Example 409] . Reported pIC50?
A) 9.12

Q) Entry under review: CC(C)(C)Cn1c(=O)c(C(=O)NC2CC2)c(O)n2nc(N)c(Cl)c12 [compound 447, hydrochloride] . Reported pIC50?
A) 8.67

* * *

target-system: human SPR (Homo sapiens (Human), UniProt P35270)
assay-info: Evaluation Example 2: Measurement of human SPR inhibitory activity (seven concentrations, sepiapterin absorbance at 420 nm)
Type: biochemical
condition: Evaluation Example 2, seven concentrations 0.14 nM to 100 nM, 240 minutes at room temperature, read-out: IC50
Counter-ions that a name gives are not always drawn.
Consider the following compounds; for each one, report its pIC50.
By convention, pIC50 is the negative base-10 log of a molar concentration.

Q) Entry under review: CC(C)Cn1c(=O)c(C(=O)NC2CC2)c(O)n2ncc(C#N)c12 [Synthesis Example 261] . Reported pIC50?
A) 8.64

Q) Entry under review: CC(C)(C)Cn1c(=O)c(C(=O)NC2CC2)c(O)n2nc(Nc3cnc(C(C)(F)F)cn3)cc12 [Synthesis Example 344] . Reported pIC50?
A) 8.77

Q) Entry under review: CC(C)(C)Cn1c(=O)c(C(=O)NC2CC2)c(O)n2nc(C(C)(C)O)cc12 [Synthesis Example 278] . Reported pIC50?
A) 8.73

Q) Entry under review: CC(C)(C)Cn1c(=O)c(C(=O)NC2CC2)c(O)n2nc(-c3cccnc3C(F)(F)F)cc12 [Synthesis Example 284] . Reported pIC50?
A) 8.41

Q) Entry under review: Cc1nn2c(O)c(C(=O)NC3CC3)c(=O)n(CC(C)C)c2c1/C=C/C(=O)N1CCOCC1(C)C [Synthesis Example 656] . Reported pIC50?
A) 8.94

Q) Entry under review: CNc1ncccc1-c1cc2n(CC(C)(C)C)c(=O)c(C(=O)NC3CC3)c(O)n2n1 [Synthesis Example 309] . Reported pIC50?
A) 7.64

Q) Entry under review: COC(C)(C)Cn1c(=O)c(C(=O)NC2CC2)c(O)n2nc(Br)cc12 [Synthesis Example 270] . Reported pIC50?
A) 8.94

Q) Entry under review: Cc1nn2c(O)c(C(=O)NC3CC3)c(=O)n(CC(C)C)c2c1/C=C/C(=O)N1CCCC12CCCN(C(=O)OC(C)(C)C)C2 (stereo not shown) [Synthesis Example 660] . Reported pIC50?
A) 8.40

Q) Entry under review: Cc1nn2c(O)c(C(=O)NC3CC3)c(=O)n(CC(C)C)c2c1/C=C/C(=O)N(C)C1CC1 . Reported pIC50?
A) 8.96

Q) Entry under review: CC(C)Cn1c(=O)c(C(=O)NC2CC2)c(O)n2ncc(/C=C/C(=O)N3CCC(OC(F)(F)F)CC3)c12 . Reported pIC50?
A) 8.75

Q) Entry under review: CC(C)Cn1c(=O)c(C(=O)NC2CC2)c(O)n2ncc(/C=C/C(=O)N(C)CC(F)(F)F)c12 . Reported pIC50?
A) 9.04

Q) Entry under review: Cc1nn2c(O)c(C(=O)NC3CC3)c(=O)n(CC(C)C)c2c1/C=C/C(=O)N1CCC[C@@H]1c1ccccn1 [Synthesis Example 635] . Reported pIC50?
A) 8.97

Q) Entry under review: COc1ccc2c(n1)nn1c(O)c(C(=O)NC3CC3)c(=O)n(CC(C)(C)C)c21 [Synthesis Example 393] . Reported pIC50?
A) 8.86

Q) Entry under review: CC(C)(C)Cn1c(=O)c(C(=O)NC2CC2)c(O)n2nc(NC(N)=O)cc12 [Synthesis Example 32] . Reported pIC50?
A) 8.51

Q) Entry under review: CC(C)Cn1c(=O)c(C(=O)NC2CC2)c(O)n2ncc(/C=C/C(=O)N3CCNCC3)c12 [compound 508, hydrochloride] . Reported pIC50?
A) 9.11

Q) Entry under review: CNc1nn2c(O)c(C(=O)NC3CC3)c(=O)n(CC(C)C)c2c1/C=C/C(=O)N1CCCC1 [Synthesis Example 427] . Reported pIC50?
A) 9.02

Q) Entry under review: CC(C)Cn1c(=O)c(C(=O)NC2CC2)c(O)n2nc(N)c(/C=C/C(=O)N3CCOC[C@H]3C)c12 [Synthesis Example 418, hydrochloride] . Reported pIC50?
A) 9.21

Q) Entry under review: CC(C)Cn1c(=O)c(C(=O)NCC(F)(F)F)c(O)n2nc(Br)cc12 [Synthesis Example 273] . Reported pIC50?
A) 7.93

Q) Entry under review: Cn1cc(-c2cc3n(CC(C)(C)C)c(=O)c(C(=O)NC4CC4)c(O)n3n2)c(C(N)=O)n1 [Synthesis Example 310] . Reported pIC50?
A) 8.61

Q) Entry under review: CC(C)(C)Cn1c(=O)c(C(=O)NC2CC2)c(O)n2nc(N)cc12 [Synthesis Example 18] . Reported pIC50?
A) 9.05

Q) Entry under review: CC(C)(C)Cn1c(=O)c(C(=O)NC2CC2)c(O)n2nc(C(N)=O)cc12 [Synthesis Example 33] . Reported pIC50?
A) 9.19

Q) Entry under review: C[C@@H]1COCCN1C(=O)/C=C/c1cnn2c(O)c(C(=O)NC3CC3)c(=O)n(CC3(C)CC3)c12 [Synthesis Example 370] . Reported pIC50?
A) 9.27

Q) Entry under review: Cc1nn2c(O)c(C(=O)NC3CC3)c(=O)n(CC(C)C)c2c1/C=C/C(=O)N1CCOC[C@H]1c1ccccc1 [Synthesis Example 642] . Reported pIC50?
A) 9.03

Q) Entry under review: CCc1c(N)nn2c(O)c(C(=O)NC3CC3)c(=O)n(CC(C)(C)C)c12 [Synthesis Example 436, hydrochloride] . Reported pIC50?
A) 8.92

Q) Entry under review: CC(C)(C)Cn1c(=O)c(C(=O)NC2CC2)c(O)n2nc(-c3[nH]ncc3C(=O)N3CCC(F)(F)CC3)cc12 [Synthesis Example 313, hydrochloride] . Reported pIC50?
A) 8.94

Q) Entry under review: Cc1nn2c(O)c(C(=O)NC3CC3)c(=O)n(CC(C)C)c2c1/C=C/C(=O)N1CCCC12CCN(C(C)C)CC2 [Synthesis Example 678] . Reported pIC50?
A) 8.93

Q) Entry under review: CC(C)(C)Cn1c(=O)c(C(=O)NC2CC2)c(O)n2nc(Nc3cc(C#N)ncn3)cc12 [Synthesis Example 329] . Reported pIC50?
A) 8.77

Q) Entry under review: CC(C)Cn1c(=O)c(C(=O)NC2CC2)c(O)n2ncc(/C=C/C(=O)NC3(C)CCOCC3)c12 . Reported pIC50?
A) 9.05
